test system: CP191; assay: qHTS profiling for inhibitors of Plasmodium falciparum proliferation (AID 504749); also: nearly all actives have a fitted effect of over 60% in size; settings: P. falciparum in erythrocytes, SYBR Green DNA, 72 h; series mostly up to 12.8 µM
Inconclusive results are not listed. The source made the active and inactive calls. Calls follow the shape of the dose curve; as a rule, active = well fitted inhibition curve with a large enough effect; inconclusive = small, poorly fitted or top-dose-only effect; inactive = flat fitted curve, though single readings scatter.
Mark one answer only. Choices: active, inactive

Below are worked cases with known answers.
Cc1ccc(S(=O)(=O)NC(=O)NN2C[C@H]3CCC[C@@H]3C2)cc1 :: inactive
C[C@H](O)Cn1cnc2c1c(=O)n(C)c(=O)n2C :: inactive

Exam item: Record request — test call for C[C@H]1CC[C@]2(OC1)O[C@@H]1C[C@@H]3[C@@H]4CC[C@H]5C[C@@H](O)CC[C@]5(C)[C@@H]4CC(=O)[C@@]3(C)[C@H]1[C@@H]2C
Marked response: inactive

Exam item: Record request — test call for C[C@@H](C(=O)O)c1ccc(C(=O)c2ccccc2)s1
Marked response: inactive

Exam item: Record request — test call for C=CCN1C(=CCO)[C@H]2C[C@H]3[C@@H]1CC[C@@]31c3ccccc3N3C=C4[C@@H]5N(/C=C/2[C@H]31)c1ccccc1[C@]51CC[C@H]2[C@H]1C[C@@H]4/C(=C/CO)N2CC=C
Marked response: inactive

Exam item: Record request — test call for CCC(CCC(C)C1CCC2C3CC=C4CC(O)CC[C@@]4(C)C3CC[C@@]12C)C(C)C (stereo partly drawn)
Marked response: inactive
